- System: H358 cells
- Method notes: Inhibition of KRas-mediated phosphorylation of ERK (Cisbio HTRF pERK), H358 cells
- Assay type: cell-based
- Condition description: Homo sapiens, NCI-H358, single point at 100 nM, 3 hrs compound incubation

- Compound: "CCc1c(F)ccc2cc(O)cc(N3CCc4c(nc(OC[C@@]56CCCN5C[C@H](F)C6)nc4N4CCCn5nc(C(=O)NCCOCCOC)cc5C4)C3)c12 [Example 374]"
  Measured target: "H358 cells"
  inhibition at 0.1 µM, %: 99
- Compound: "CCNC(=O)c1cc2n(n1)CCCCN(c1nc(OC[C@@]34CCCN3C[C@H](F)C4)nc3c1CCN(c1cc(O)cc4ccc(F)c(CC)c14)C3)C2 [Example 301]"
  Measured target: "H358 cells"
  inhibition at 0.1 µM, %: 102
- Compound: "CCc1c(F)ccc2cc(O)cc(N3CCc4c(nc(OC[C@@]56CCCN5C[C@H](F)C6)nc4N4CCCn5nc(C(=O)O)cc5C4)C3)c12 [Example 389]"
  Measured target: "H358 cells"
  inhibition at 0.1 µM, %: 23
- Compound: "CCc1c(C(=O)N(C)C)nn2c1CN(c1nc(OC[C@@]34CCCN3C[C@H](F)C4)nc3c1CCN(c1cc(O)cc4ccc(F)c(CC)c14)C3)CCC2 [Example 372]"
  Measured target: "H358 cells"
  inhibition at 0.1 µM, %: 104
- Compound: "CCc1c(F)ccc2cc(O)cc(N3CCc4c(nc(OC[C@@]56CCCN5C[C@H](F)C6)nc4N4CCCCC(C(=O)N(C)C)C4)C3)c12 (stereo partly drawn) [Example 313]"
  Measured target: "H358 cells"
  inhibition at 0.1 µM, %: 8
- Compound: "CCc1c(F)ccc2cc(O)cc(N3CCc4c(nc(OC[C@@]56CCCN5C[C@H](F)C6)nc4N4CCCn5nc(C(=O)N6CC[C@@H]7CC[C@H]6C7)cc5C4)C3)c12 [Example 338]"
  Measured target: "H358 cells"
  inhibition at 0.1 µM, %: 102
